Taken from ChEMBL document CHEMBL5291721.

This document collects AC50 values reported for Muscarinic acetylcholine receptor M2 (Homo sapiens, UniProt P08172).

Observe how each entry below is paired with its result.
1) COc1cc2nc(N3CCN(C(=O)c4ccco4)CC3)nc(N)c2cc1OC: 13.3 µM
2) O=C(Oc1ccc2c(c1)CCCN2C(=O)C(Cl)Cl)c1ccco1 [QUINFAMIDE]: > 30 µM
3) CN(C)[C@@H](c1cccc(O)c1)[C@H]1CCCC[C@H]1O: > 30 µM
4) CN(C)CCN1C(=O)c2ccccc2N(C)c2ccccc21 [DIBENZEPIN]: 2.62 µM
5) NCC(CC(=O)O)c1ccc(Cl)cc1 (stereo not drawn): > 30 µM
6) CC[C@]1(O)C[C@H]2CN(CCc3c([nH]c4ccccc34)[C@@](C(=O)OC)(c3cc4c(cc3OC)N(C=O)[C@H]3[C@@](O)(C(=O)OC)[C@H](OC(C)=O)[C@]5(CC)C=CCN6CC[C@]43[C@@H]65)C2)C1: > 30 µM
7) CO[C@]12C[C@@H](COC(=O)c3cncc(Br)c3)CN(C)[C@@H]1Cc1cn(C)c3cccc2c13: 7.93 µM

As a next step, examine the compound that follows.
**Q:** GET /values?readout=AC50&system=Muscarinic acetylcholine receptor M2 (Homo sapiens, UniProt P08172)&item= CC(C)Nc1ncccn1; further: assay procedure not described here
**A:** > 30 µM
